Assignment: determine reported kon for the given binders.
Target: T1, Recombinant human CD4 (R&D Systems, Cat. 10327-CD) (human, UniProt P01730 26-390, limits assumed)
T1 construct: Soluble analyte in the Octet assay
Experiment: BLI Octet, mAb on anti-mouse Fc sensor, CD4 100/50/25 nM, 1:1 global fit;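 further: antibodies loaded at 10 µg/mL, an unrelated mouse-derived antibody served as internal reference control, association and dissociation phases fitted after Savitzky-Golay smoothing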
One number for each entry, in M⁻¹ s⁻¹.

These recorded examples may help you get a feel for the data.
Need kon of 75110_02E08A (antibody, V domains shown, Tested as antibody purified from AlivaMab Mouse hybridoma supernatant (captured by anti-mouse IgG Fc)) VH: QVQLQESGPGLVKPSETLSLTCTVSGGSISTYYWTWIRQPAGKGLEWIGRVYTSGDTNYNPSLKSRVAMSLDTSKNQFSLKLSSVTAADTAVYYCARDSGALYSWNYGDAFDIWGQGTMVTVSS VL: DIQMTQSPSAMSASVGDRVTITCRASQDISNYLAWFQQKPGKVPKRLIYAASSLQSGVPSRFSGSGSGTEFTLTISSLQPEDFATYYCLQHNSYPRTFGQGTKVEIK , thanks.
280000

kon for 75110_01A06A (antibody, V domains shown, Tested as antibody purified from AlivaMab Mouse hybridoma supernatant (captured by anti-mouse IgG Fc)) VH: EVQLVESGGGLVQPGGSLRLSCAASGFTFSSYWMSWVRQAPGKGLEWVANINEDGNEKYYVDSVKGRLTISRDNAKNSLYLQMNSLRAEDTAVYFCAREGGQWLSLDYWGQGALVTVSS VL: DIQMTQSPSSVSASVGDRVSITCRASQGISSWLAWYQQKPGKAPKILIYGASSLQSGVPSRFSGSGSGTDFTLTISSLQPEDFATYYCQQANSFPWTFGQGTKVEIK ?
100000

Now for a further binder.
If you can, please state the reported kon value of 75110_05E05A (antibody, V domains shown, Tested as antibody purified from AlivaMab Mouse hybridoma supernatant (captured by anti-mouse IgG Fc)) VH: QVQLQESGPGLVKPSETLSLTCTVSGGSIGSYYWSWIRQPAGKGLEWIGRIYTSGSTNYNPSLKSRVTMSFDTSKNQFSLKLNSVTAADTAVYYCATDGGVGDSLDYWGQGTLVTVSS VL: DIVMTQTPLSLPVTPGEPASISCRSSQSLLDSDDGNTYLDWYLQKPGQSPQLLIYTLSYRASGVPDRFSGSGSGTDFTLKISRVEAEDVGVYYCMQHIEFPFTFGPGTKVDIK .
34000
